The origin of these recorded values is patent US20230257347A1.

# system tested: human 5-HT transporter (hSERT) (Homo sapiens)
# Sequence (P31645 whole entry): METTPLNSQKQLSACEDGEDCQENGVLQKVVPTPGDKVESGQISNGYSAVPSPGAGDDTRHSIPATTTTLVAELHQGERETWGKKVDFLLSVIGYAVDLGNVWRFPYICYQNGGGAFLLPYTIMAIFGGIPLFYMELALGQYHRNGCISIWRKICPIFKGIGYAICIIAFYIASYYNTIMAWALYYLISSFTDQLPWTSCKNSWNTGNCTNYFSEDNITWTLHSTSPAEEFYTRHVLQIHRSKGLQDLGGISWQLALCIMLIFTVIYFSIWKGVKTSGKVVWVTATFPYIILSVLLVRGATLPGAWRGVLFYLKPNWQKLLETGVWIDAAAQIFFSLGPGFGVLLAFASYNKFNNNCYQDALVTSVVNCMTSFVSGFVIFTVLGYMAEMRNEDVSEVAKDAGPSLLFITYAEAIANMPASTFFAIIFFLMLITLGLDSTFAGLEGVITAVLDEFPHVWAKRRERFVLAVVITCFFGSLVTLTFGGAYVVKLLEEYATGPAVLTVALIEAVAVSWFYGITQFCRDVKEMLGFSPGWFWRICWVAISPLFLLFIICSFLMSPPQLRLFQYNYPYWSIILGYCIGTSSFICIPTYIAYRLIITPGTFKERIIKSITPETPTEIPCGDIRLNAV
Items are presented alongside their recorded pKi.
Value format note: pKi is -log10 of concentration (mol/L); just state the number.

Examples with their reported pKi follow.
| compound | pKi |
| --- | --- |
| CNC(C)C(=O)c1c[nH]c2ccc(Br)cc12 (stereo not drawn) [drawing 184] | 5.59 |
| CNC(C)C(=O)c1c[nH]c2ccc(F)cc12 (stereo not drawn) [drawing 183] | 5.80 |

# evaluate next
**Q:** Need pKi of CNC(C)C(=O)c1c[nH]c2ccc(Cl)cc12 (stereo not drawn) [drawing 185] , thanks.
**A:** 5.96

----------
Quick list: IC50 per entry.
# system tested: 5-Hydroxytryptamine (Serotonin) Receptor 1A (5-HT1A) (Homo sapiens, UniProt P08908)
# Sequence (P08908 whole entry): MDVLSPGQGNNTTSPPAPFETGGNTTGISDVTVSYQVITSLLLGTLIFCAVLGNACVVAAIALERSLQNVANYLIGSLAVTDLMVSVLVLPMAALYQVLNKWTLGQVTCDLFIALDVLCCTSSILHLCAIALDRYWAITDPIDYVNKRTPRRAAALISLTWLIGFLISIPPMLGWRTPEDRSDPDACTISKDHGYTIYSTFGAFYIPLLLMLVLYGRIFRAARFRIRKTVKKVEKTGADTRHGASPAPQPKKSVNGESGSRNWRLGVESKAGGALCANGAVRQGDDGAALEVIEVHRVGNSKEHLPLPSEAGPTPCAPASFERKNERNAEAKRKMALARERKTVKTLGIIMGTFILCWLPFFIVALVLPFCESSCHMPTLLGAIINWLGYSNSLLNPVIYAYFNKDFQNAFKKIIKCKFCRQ
# method summary: cAMP secondary messenger assay, 5-HT1A
Counter-ions that a name gives are not always drawn.

| compound | meas value |
| --- | --- |
| CNC(C)C(=O)c1c[nH]c2ccc(Cl)cc12 (stereo not drawn) [BK-5Cl-NM-AMT, hydrochloride] | > 10 µM |
| CNC(C)C(=O)c1c[nH]c2ccc(Br)cc12 (stereo not drawn) [BK-5Br-NM-AMT, hydrochloride] | > 10 µM |

Read the next record carefully.
**Q:** Reported IC50, compound CNC(C)C(=O)c1c[nH]c2ccc(F)cc12 (stereo not drawn) [BK-5F-NM-AMT, hydrochloride] : ____
**A:** > 10 µM
